B1: RTP4 (parent)
chain: AFGWFRCSSCQRSWASAQVQILCH

# Variants of: B1
# assay-details: protein stability index of a GFP-peptide fusion (GPS, HEK-293T) (PSI 1-6); higher = more stable;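 further: lentivirally expressed fusions sorted by FACS into six bins by GFP to DsRed ratio, PSI derived from sequencing read proportions per bin multiplied by bin number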
# condition-context: c terminus: a fixed tail appended
Short version: protein stability index at least 2 is Criterion met, less is Criterion not met.

[[record]]
var = "S16Y"
category = "Criterion not met"

[[record]]
var = "A15N"
category = "Criterion met"

[[record]]
var = "A1V"
category = "Criterion met"

[[record]]
var = "C23I"
category = "Criterion met"

[[record]]
var = "Q11E"
category = "Criterion not met"

[[record]]
var = "R6H"
category = "Criterion met"

[[record]]
var = "Q18A"
category = "Criterion met"

[[record]]
var = "A1G"
category = "Criterion met"

[[record]]
var = "W14I"
category = "Criterion met"

[[record]]
var = "C23P"
category = "Criterion met"

[[record]]
var = "C23S"
category = "Criterion not met"

[[record]]
var = "A17W"
category = "Criterion met"

[[record]]
var = "R6F"
category = "Criterion not met"

[[record]]
var = "Q11I"
category = "Criterion met"

[[record]]
var = "Q20D"
category = "Criterion not met"

[[record]]
var = "A15H"
category = "Criterion not met"

[[record]]
var = "S8D"
category = "Criterion met"

[[record]]
var = "L22W"
category = "Criterion met"

